- Test system: Candida albicans
- Assay: Growth inhibition of Candida albicans ATCC 90028 at 16 ug/ml incubated for 48 hrs at 35 degC by broth microdilution method relative to control
- Assay type: functional
- Run parameters: ATCC 90028, 48 h, read-out: GI
Listing of entries alongside the reported inhibition of growth at 16 µg/mL.
Just the number in %, nothing appended.

Recorded inhibition of growth at 16 µg/mL (molecule CC(Cn1cnc2c1c(=O)n(C)c(=O)n2C)OC(=O)CC(=O)c1ccccc1 (stereo unspecified) ): 99

Recorded inhibition of growth at 16 µg/mL (molecule CC(Cn1cnc2c1c(=O)n(C)c(=O)n2C)OC(=O)Sc1ccccc1 (stereo unspecified) ): 99.5

Recorded inhibition of growth at 16 µg/mL (molecule CC(Cn1cnc2c1c(=O)n(C)c(=O)n2C)OC(=O)N1c2ccccc2Sc2ccccc21 (stereo unspecified) ): 99.2

Recorded inhibition of growth at 16 µg/mL (molecule COC(C(=O)OC(C)Cn1cnc2c1c(=O)n(C)c(=O)n2C)c1ccc(C(C)(C)C)cc1 (stereo unspecified) ): 99.2

Recorded inhibition of growth at 16 µg/mL (molecule COC(C(=O)OC(C)Cn1cnc2c1c(=O)n(C)c(=O)n2C)c1ccc2ccccc2c1 (stereo unspecified) ): 99

====

Listing of entries alongside the reported inhibition of growth at 8 µg/mL.
- System: Candida albicans
- Assay: Growth inhibition of Candida albicans ATCC 90028 at 8 ug/ml incubated for 18 hrs at 35 degC by broth microdilution method relative to control
- Type: functional
- Run parameters: ATCC 90028, 18 h, read-out: GI
Just the number in %, nothing appended.

CC(Cn1cnc2c1c(=O)n(C)c(=O)n2C)OC(=O)C1c2ccccc2-c2ccccc21 (configuration not stated)	99.8

inhibition of growth at 8 µg/mL of COC(C(=O)OC(C)Cn1cnc2c1c(=O)n(C)c(=O)n2C)c1cccc2ccccc12 (configuration not stated) , assay on Candida albicans, is 100

inhibition of growth at 8 µg/mL of CC(Cn1cnc2c1c(=O)n(C)c(=O)n2C)OC(=O)C(c1ccccc1)c1ccccc1 (configuration not stated) , assay on Candida albicans, is 99.9

inhibition of growth at 8 µg/mL of CC(CN1c2ccccc2Sc2ccccc21)OC(=O)OC(C)Cn1cnc2c1c(=O)n(C)c(=O)n2C (configuration not stated) , assay on Candida albicans, is 100

inhibition of growth at 8 µg/mL of CC(Cn1cnc2c1c(=O)n(C)c(=O)n2C)OCc1cn(-c2cccc3ccccc23)nn1 (configuration not stated) , assay on Candida albicans, is 99.9

inhibition of growth at 8 µg/mL of CC(Cn1cnc2c1c(=O)n(C)c(=O)n2C)OC(=O)N1c2ccccc2Sc2ccccc21 (configuration not stated) , assay on Candida albicans, is 99.7

inhibition of growth at 8 µg/mL of CC(Cn1cnc2c1c(=O)n(C)c(=O)n2C)OCc1cn(CCCn2cnc3c(Br)c(Br)c(Br)c(Br)c32)nn1 (configuration not stated) , assay on Candida albicans, is 99.9

====

- Test system: Candida albicans
- Assay: Growth inhibition of Candida albicans ATCC 90028 at 2 ug/ml incubated for 18 hrs at 35 degC by broth microdilution method relative to control
- Format: functional
- Run parameters: ATCC 90028, 18 h, read-out: GI
Measurement label: inhibition of growth at 2 µg/mL (%)
Just the number in %, nothing appended.

Answered examples (3):
COC(C(=O)OC(C)Cn1cnc2c1c(=O)n(C)c(=O)n2C)c1ccc(C(C)(C)C)cc1 (configuration not stated)	99.9
COC(C(=O)OC(C)Cn1cnc2c1c(=O)n(C)c(=O)n2C)c1ccc2ccccc2c1 (configuration not stated)	99
Cc1ccc(C(=O)CC(=O)OC(C)Cn2cnc3c2c(=O)n(C)c(=O)n3C)cc1 (configuration not stated)	100

Recorded inhibition of growth at 2 µg/mL (compound CC(Cn1cnc2c1c(=O)n(C)c(=O)n2C)OC(=O)C(c1ccccc1)c1ccccc1 (configuration not stated) ): 99.8

Recorded inhibition of growth at 2 µg/mL (compound CC(Cn1cnc2c1c(=O)n(C)c(=O)n2C)OCc1cn(CCCn2cnc3c(Br)c(Br)c(Br)c(Br)c32)nn1 (configuration not stated) ): 100

Recorded inhibition of growth at 2 µg/mL (compound CC(Cn1cnc2c1c(=O)n(C)c(=O)n2C)OC(=O)N1c2ccccc2Sc2ccccc21 (configuration not stated) ): 99.8

Recorded inhibition of growth at 2 µg/mL (compound CC(Cn1cnc2c1c(=O)n(C)c(=O)n2C)OC(=O)Sc1ccccc1 (configuration not stated) ): 100

====

Listing of entries alongside the reported inhibition of growth at 8 µg/mL.
- Test system: Candida albicans
- Assay: Growth inhibition of Candida albicans ATCC 90028 at 8 ug/ml incubated for 48 hrs at 35 degC by broth microdilution method relative to control
- Assay type: functional
- Run parameters: ATCC 90028, 48 h, read-out: GI
Just the number in %, nothing appended.

Answered examples (4):
CC(Cn1cnc2c1c(=O)n(C)c(=O)n2C)OCc1cn(-c2cccc3ccccc23)nn1 (stereo not given)	99.6
COC(C(=O)OC(C)Cn1cnc2c1c(=O)n(C)c(=O)n2C)c1cccc2ccccc12 (stereo not given)	99.6
CC(Cn1cnc2c1c(=O)n(C)c(=O)n2C)OCc1cn(CCCn2cnc3c(Br)c(Br)c(Br)c(Br)c32)nn1 (stereo not given)	99.2
COC(C(=O)OC(C)Cn1cnc2c1c(=O)n(C)c(=O)n2C)c1ccc(C(C)(C)C)cc1 (stereo not given)	99.7

Shifting focus to the molecule that follows.
inhibition of growth at 8 µg/mL of CC(CN1c2ccccc2Sc2ccccc21)OC(=O)OC(C)Cn1cnc2c1c(=O)n(C)c(=O)n2C (stereo not given) , assay on Candida albicans, is 100

====

Listing of entries alongside the reported inhibition of growth at 1 µg/mL.
- Tested on: Candida albicans
- Assay: Growth inhibition of Candida albicans ATCC 90028 at 1 ug/ml incubated for 4 hrs at 35 degC by broth microdilution method relative to control
- Format: functional
- Run parameters: ATCC 90028, 4 h, read-out: GI
Just the number in %, nothing appended.

Answered examples (6):
CC(Cn1cnc2c1c(=O)n(C)c(=O)n2C)OC(=O)N1c2ccccc2C=Cc2ccccc21 (stereo unspecified)	99.3
CC(Cn1cnc2c1c(=O)n(C)c(=O)n2C)OC(=O)Nc1ccccc1 (stereo unspecified)	99.3
CC(Cn1cnc2c1c(=O)n(C)c(=O)n2C)OCc1cn(CCCn2cnc3c(Br)c(Br)c(Br)c(Br)c32)nn1 (stereo unspecified)	99.2
CC(CN1c2ccccc2Sc2ccccc21)OC(=O)OC(C)Cn1cnc2c1c(=O)n(C)c(=O)n2C (stereo unspecified)	99.5
CC(Cn1cnc2c1c(=O)n(C)c(=O)n2C)OCc1cn(CCCn2nc3c(Br)c(Br)c(Br)c(Br)c3n2)nn1 (stereo unspecified)	99.1
COC(C(=O)OC(C)Cn1cnc2c1c(=O)n(C)c(=O)n2C)c1ccc(C(C)(C)C)cc1 (stereo unspecified)	99.4

Recorded inhibition of growth at 1 µg/mL (compound CC(Cn1cnc2c1c(=O)n(C)c(=O)n2C)OC(=O)CC(=O)c1ccc(F)cc1 (stereo unspecified) ): 100

Recorded inhibition of growth at 1 µg/mL (compound CC(Cn1cnc2c1c(=O)n(C)c(=O)n2C)OC(=O)C1c2ccccc2-c2ccccc21 (stereo unspecified) ): 99.3

Recorded inhibition of growth at 1 µg/mL (compound CC(Cn1cnc2c1c(=O)n(C)c(=O)n2C)OC(=O)N1c2ccccc2Sc2ccccc21 (stereo unspecified) ): 99

Recorded inhibition of growth at 1 µg/mL (compound COC(C(=O)OC(C)Cn1cnc2c1c(=O)n(C)c(=O)n2C)c1cccc2ccccc12 (stereo unspecified) ): 99.3

Recorded inhibition of growth at 1 µg/mL (compound CC(Cn1cnc2c1c(=O)n(C)c(=O)n2C)OC(=O)Sc1ccccc1 (stereo unspecified) ): 99.5

====

- Test system: Candida albicans
- Assay: Growth inhibition of Candida albicans ATCC 90028 at 8 ug/ml incubated for 48 hrs at 35 degC by broth microdilution method relative to control
- Type: functional
- Run parameters: ATCC 90028, 48 h, read-out: GI
Measurement label: inhibition of growth at 8 µg/mL (%)
Just the number in %, nothing appended.

Answered examples (3):
CC(Cn1cnc2c1c(=O)n(C)c(=O)n2C)OCc1cn(CCCn2nc3c(Br)c(Br)c(Br)c(Br)c3n2)nn1 (stereo unspecified)	99.9
CC(Cn1cnc2c1c(=O)n(C)c(=O)n2C)OC(=O)C(c1ccccc1)c1ccccc1 (stereo unspecified)	99.1
Cc1ccc(C(=O)CC(=O)OC(C)Cn2cnc3c2c(=O)n(C)c(=O)n3C)cc1 (stereo unspecified)	99.3

Recorded inhibition of growth at 8 µg/mL (compound CC(Cn1cnc2c1c(=O)n(C)c(=O)n2C)OC(=O)C1c2ccccc2-c2ccccc21 (stereo unspecified) ): 99.4

Recorded inhibition of growth at 8 µg/mL (compound CC(Cn1cnc2c1c(=O)n(C)c(=O)n2C)OC(=O)CC(=O)c1ccccc1 (stereo unspecified) ): 99

Recorded inhibition of growth at 8 µg/mL (compound CC(Cn1cnc2c1c(=O)n(C)c(=O)n2C)OC(=O)N1c2ccccc2C=Cc2ccccc21 (stereo unspecified) ): 99.2
